Tested on: ACHN renal
assay: NCI-60 one-dose screen, 48 h (100 = growth as untreated, 0 = no growth, -100 = all killed)
condition_details: 10 µM unless noted
Procedure: Growth inhibition of the ACHN human tumor cell line is measured as a screen for anti-cancer activity. Cells are grown in 96 well plates and exposed to the test compound for 48 hours. Compounds are tested at a single concentration, which is 10^-5 M for most compounds. The reported endpoint is percent growth (GI% or GIPRCNT), where numbers from 0 - 100% represent growth inhibition, and numbers from -100% - 0 represent cell death. For example, a value of 40 represents 60% growth inhibition. […]
Compounds without any hit were thinned out: in the full panel of roughly 83,000, 20% have a hit. Calls of active or inactive are those of the source. Rule for the calls: active = growth percent below 10; inactive = the rest.
readout_kind: growth

### Prompt Provide growth, system ACHN renal, entry `CCOC(=O)CSc1nc2ccccc2c(=O)n1Cc1ccc(S(N)(=O)=O)cc1`
### Response 102% (inactive)

### Prompt Answer briefly: growth recorded on ACHN renal for `O=S(=O)(NCCCNc1nccc(-c2c(-c3cccc(F)c3)nc3sccn23)n1)c1cccc(F)c1`
### Response 42.5% (inactive)

### Prompt Please report growth with ACHN renal for item NC1[C@H](c2c[nH]c3ccccc23)c2c([nH]c3ccccc23)[C@H]1c1c[nH]c2ccccc12 (some centres undefined) .
### Response 88% (inactive)

### Prompt Find growth for `NC(=NCCCOc1ccc(F)cc1)Nc1ccc(Cl)cc1` on ACHN renal and write it down.
### Response 18.3% (inactive)

### Prompt With ACHN renal as the test system, provide measured growth for this compound: COc1ccc(C(=O)C2C(C#N)C(C#N)C3c4ccccc4C=CN23)cc1 (centres undefined)
### Response 91.3% (inactive)

### Prompt # assay system ACHN renal: give growth of `N#C/C(=C\c1ccc([N+](=O)[O-])s1)c1nc2cc(Br)ccc2s1`
### Response -56.8% (active)

### Prompt Lab note: record growth of `CCN(CC)c1ccc(/C=N/NC(=O)CSc2nc3ccccc3c(=O)n2CCc2ccc(S(N)(=O)=O)cc2)c(O)c1` tested on ACHN renal.
### Response 28.7% (inactive)

### Prompt Specify the recorded growth for `O=S(=O)(NCCNc1nccc(-c2c(-c3cccc(O)c3)nc3occn23)n1)c1cccc(F)c1` , system: ACHN renal.
### Response 78% (inactive)

### Prompt Tell me its growth on ACHN renal: `OCc1cnccc1NCCCOc1ccccc1`
### Response 108% (inactive)

###

Exercise: state measured growth for each of the compounds provided.
Tested on: OVCAR-3 ovarian
assay: NCI-60 one-dose screen, 48 h (100 = growth as untreated, 0 = no growth, -100 = all killed)
condition_details: 10 µM unless noted
Compounds without any hit were thinned out: in the full panel of roughly 83,000, 20% have a hit.
Give your result in % as a bare value.

### Prompt Answer briefly: growth recorded on OVCAR-3 ovarian for `COc1cc(/C=C\c2cc(OC)c(OC)c(OC)c2)cc(NC(=O)/C=C/c2cc(OC)c(OC)c(OC)c2)c1OC`
### Response 51.1

### Prompt Tell me growth of `CCN(c1ccccc1)S(=O)(=O)c1cc([N+](=O)[O-])ccc1Cl` when tested on OVCAR-3 ovarian.
### Response 74.7

### Prompt Answer with growth of `COc1ccccc1/C(C)=N/NC(=O)CSc1nc2ccccc2c(=O)n1Cc1ccc(S(N)(=O)=O)cc1` measured for OVCAR-3 ovarian.
### Response 108

### Prompt Using OVCAR-3 ovarian as the test system, report measured growth of `O=[N+]([O-])c1cc(Br)c2cccc3c2c1CC3` .
### Response 108

### Prompt Provide the reported growth (system: OVCAR-3 ovarian) for `CC(C)c1ccc(Nc2ccc3c(OCCCN4CCN(C)CC4)cccc3n2)cc1`
### Response 79.4

### Prompt Check OVCAR-3 ovarian data and give growth for `Oc1c(Cl)cc(Cl)c(Cl)c1CNCCNCc1c(O)c(Cl)cc(Cl)c1Cl` .
### Response 19.1

### Prompt Using OVCAR-3 ovarian as the test system, report measured growth of `CCOC(=O)C1=C(C)NC(SCc2cc(=O)oc3ccc(F)cc23)=N[C@@H]1c1cccc2ccccc12` .
### Response 92.4

### Prompt Send back OVCAR-3 ovarian growth of `CCOC(=O)c1cc(C(=O)c2ccc(OC)c(OC)c2)n2ccc(/C=C/c3cc[n+](CC(=O)c4ccc(OC)c(OC)c4)cc3)cc12` only.
### Response 102

### Prompt Enter recorded growth with OVCAR-3 ovarian for `N#Cc1c(NCc2ccccc2I)sc2c1CCCCC2` here.
### Response 104

### Prompt Give growth for `Cc1cc2nc3c4cc(C=O)ccc4n(CCN(C)C)c3nc2cc1C` tested on OVCAR-3 ovarian.
### Response 22.7

### Prompt GET growth where system = OVCAR-3 ovarian and item = `O=C1c2cccc3c(-c4ccc5c(c4)ncn5C4CCCCC4)ccc(c23)C(=O)N1CCO`
### Response 88.9

### Prompt Answer briefly: growth recorded on OVCAR-3 ovarian for `CCN(CC)c1ccc(/C=N/NC(=O)CSc2nc3ccccc3c(=O)n2Cc2ccc(S(N)(=O)=O)cc2)c(O)c1`
### Response 15

### Prompt Retrieve growth on OVCAR-3 ovarian; query `CCCCCN1C=C/C(=C\C(=O)N(C)c2ccc(Oc3ccccc3)cc2)c2ccccc21`
### Response 83.6

// provenance: PubChem BioAssay (NCI)
